Test system: right Purkinje fiber
Experiment: Effect on myocardial action potential duration (APD75) in isolated, perfused Purkinje fiber
Type: cell-based, mongrel adult dog
Test Settings: Canis lupus familiaris, 20 min, Dose 1 x 10^-6 M, 20 minutes' incubation, field stimulus of 1 Hz, 37°C, read-out: T (%), percent prolongation of myocardial action potential duration (APD75)
Procedure: After a mongrel adult dog was anesthetized by the intravenous administration of 30 mg/kg of pentobarbital, the heart was excised therefrom. Then, the right Purkinje fiber was isolated in a nutrient fluid (i.e., Tyrode's solution). The isolated right Purkinje fiber was fixed in a constant-temperature bath (20 ml) at 37°C and perfused with Tyrode's solution. In this state, the myocardial action potential duration (APD75) was measured before and after the administration of each test compound. […]
In this section, each of the molecules is paired with its reported activation at 1 µM.
Entry rule: numbers only, all in %.

Name the recorded activation at 1 µM of the item CCCN(CCCc1cc(=O)n(C)c(=O)n1C)CCOc1ccc(NS(C)(=O)=O)cc1 in your answer.
17

Name the recorded activation at 1 µM of the item CCCN(CCCc1cc(=O)n(C)c(=O)n1C)CCc1ccc([N+](=O)[O-])cc1 in your answer.
52

Name the recorded activation at 1 µM of the item CCCN(CCCc1cc(=O)n(C)c(=O)n1C)CCc1ccc(NS(C)(=O)=O)cc1 in your answer.
16

* * *

Tested on: ventricular muscle
Experiment: Effect on ventricular muscle refractory period (ERP) under ventricular pacing in anesthetized dog
Format: in vivo, mongrel adult dog
Test Settings: Dose 0.3 mg/kg i.v., ventricular pacing at 400 msec
In this section, each of the compounds is paired with its reported ERP (%), percent prolongation of refractory period.
Entry rule: numbers only, all in %.

[[record]]
compound_structure_string = "CCCN(CCCc1cc(=O)n(C)c(=O)n1C)CCOc1ccc(NS(C)(=O)=O)cc1"
measured_number = 20.0

[[record]]
compound_structure_string = "CCCN(CCCc1cc(=O)n(C)c(=O)n1C)CCc1ccc(NS(C)(=O)=O)cc1"
measured_number = 20.0

[[record]]
compound_structure_string = "CC(C)N(CCCc1cc(=O)n(C)c(=O)n1C)CCOc1ccc(NS(C)(=O)=O)cc1"
measured_number = 12.5


Name the recorded ERP (%), percent prolongation of refractory period of the item CCCN(CCOc1ccc(NS(C)(=O)=O)cc1)CCc1cc(=O)n(C)c(=O)n1C in your answer.
5.9

* * *

In this section, each of the molecules is paired with its reported ERP (%), percent prolongation of refractory period.
System: ventricular muscle
Experiment: Effect on ventricular muscle refractory period (ERP) under ventricular pacing in anesthetized dog
Type: in vivo, mongrel adult dog
Test Settings: Dose 1.0 mg/kg i.v., ventricular pacing at 400 msec
Entry rule: numbers only, all in %.

Observe how each entry below is paired with its result.
[[record]]
compound_structure_string = "CCCN(CCCc1cc(=O)n(C)c(=O)n1C)CCOc1ccc(NS(C)(=O)=O)cc1"
uom = "%"
measured_number = 33.3

[[record]]
compound_structure_string = "CC(C)N(CCCc1cc(=O)n(C)c(=O)n1C)CCOc1ccc(NS(C)(=O)=O)cc1"
uom = "%"
measured_number = 25.0

[[record]]
compound_structure_string = "CCCN(CCOc1ccc(NS(C)(=O)=O)cc1)CCc1cc(=O)n(C)c(=O)n1C"
uom = "%"
measured_number = 11.8


Could you now look at the following molecule, please?
Name the recorded ERP (%), percent prolongation of refractory period of the item CCCN(CCCc1cc(=O)n(C)c(=O)n1C)CCc1ccc(NS(C)(=O)=O)cc1 in your answer.
33.3

* * *

Test system: right Purkinje fiber
Experiment: Effect on myocardial action potential duration (APD75) in isolated, perfused Purkinje fiber
Type: cell-based, mongrel adult dog
Test Settings: Canis lupus familiaris, 20 min, Dose 1 x 10^-6 M, 20 minutes' incubation, field stimulus of 1 Hz, 37°C, read-out: T (%), percent prolongation of myocardial action potential duration (APD75)
Everything with activation at 1 µM lower than 10% is 0.0; everything else, including exactly 10%, is 1.0.

# count of solved cases: 6
[[record]]
molecule = "CCN(CCCc1cc(=O)n(C)c(=O)n1C)CCc1ccc([N+](=O)[O-])cc1 [Example 84]"
class_assignment = 1.0

[[record]]
molecule = "CC(C)N(CCCc1cc(=O)n(C)c(=O)n1C)CCOc1ccc(-n2ccnc2)cc1 [Example 53]"
class_assignment = 0.0

[[record]]
molecule = "CC(C)N(CCCc1cc(=O)n(C)c(=O)n1C)CCOc1ccc(NS(C)(=O)=O)cc1 [Example 116]"
class_assignment = 0.0

[[record]]
molecule = "CCN(CCCc1cc(=O)n(C)c(=O)n1C)CCOc1cccc(F)c1 [Example 38]"
class_assignment = 0.0

[[record]]
molecule = "CCN(CCOc1ccc(NS(C)(=O)=O)cc1)CCc1cc(=O)n(C)c(=O)n1C [Example 123]"
class_assignment = 1.0

[[record]]
molecule = "CCN(CCOc1ccc(F)cc1C(C)=O)CCc1cc(=O)n(C)c(=O)n1C [Example 61]"
class_assignment = 0.0


# bool: activation at 1 µM of CC(=O)c1cc(F)ccc1OCCN(C)CCCc1cc(=O)n(C)c(=O)n1C [Example 60] >= 10%
1.0

# bool: activation at 1 µM of CCN(CCCc1cc(=O)n(C)c(=O)n1C)CCOc1ccc(F)cc1 [Example 39] >= 10%
1.0

# bool: activation at 1 µM of CCCN(CCOc1ccc(NS(C)(=O)=O)cc1)CCc1cc(=O)n(C)c(=O)n1C [Example 126] >= 10%
1.0

* * *

Experiment: Stability test in acid aqueous solution (Solution 1 of the Japanese Pharmacopoeia, pH 1.2), remaining compound by HPLC
Format: physicochemical
Test Settings: jp solution 1; 6 hours; Solution 1 (pH 1.2), 37°C; read-out: decrease after 6 hours' heating
Recorded Endpoint: degraded at 6 h (%)
Entry rule: numbers only, all in %.

Name the recorded degraded at 6 h of the item CCN(CCCc1ccccc1)CCNc1cc(=O)n(C)c(=O)n1C in your answer.
7

* * *

In this section, each of the compounds is paired with its reported remaining at 6 h.
Experiment: Stability test in acid aqueous solution (Solution 1 of the Japanese Pharmacopoeia, pH 1.2), remaining compound by HPLC
Assay type: physicochemical
Test Settings: jp solution 1; 6 hr; Solution 1 (pH 1.2), 2 mg/ml, stirred at 37°C, HPLC; read-out: Percentage of remaining compound
Entry rule: numbers only, all in %.

[[record]]
compound_structure_string = "CCN(CCCc1ccccc1)CCNc1cc(=O)n(C)c(=O)n1C"
recorded_endpoint = "remaining at 6 h"
uom = "%"
measured_number = 93


Could you now look at the following compound, please?
Name the recorded remaining at 6 h of the item CCCN(CCCc1cc(=O)n(C)c(=O)n1C)CCc1ccc(NS(C)(=O)=O)cc1 in your answer.
99

* * *

Experiment: Stability test in acid aqueous solution (Solution 1 of the Japanese Pharmacopoeia, pH 1.2), remaining compound by HPLC
Type: physicochemical
Test Settings: jp solution 1; 3 hr; Solution 1 (pH 1.2), 2 mg/ml, stirred at 37°C, HPLC; read-out: Percentage of remaining compound
From the text: […]
In this section, each of the compounds is paired with its reported remaining at 3 h.
Entry rule: numbers only, all in %.

[[record]]
compound_structure_string = "CCN(CCCc1ccccc1)CCNc1cc(=O)n(C)c(=O)n1C"
recorded_endpoint = "remaining at 3 h"
uom = "%"
measured_number = 96


Could you now look at the following compound, please?
Name the recorded remaining at 3 h of the item CCCN(CCCc1cc(=O)n(C)c(=O)n1C)CCc1ccc(NS(C)(=O)=O)cc1 in your answer.
100

* * *

Test system: right Purkinje fiber
Experiment: Effect on myocardial action potential duration (APD75) in isolated, perfused Purkinje fiber
Format: cell-based, mongrel adult dog
Test Settings: Canis lupus familiaris, 20 min, Dose 1 x 10^-6 M, 20 minutes' incubation, field stimulus of 1 Hz, 37°C, read-out: T (%), percent prolongation of myocardial action potential duration (APD75)
Procedure: After a mongrel adult dog was anesthetized by the intravenous administration of 30 mg/kg of pentobarbital, the heart was excised therefrom. Then, the right Purkinje fiber was isolated in a nutrient fluid (i.e., Tyrode's solution). The isolated right Purkinje fiber was fixed in a constant-temperature bath (20 ml) at 37°C and perfused with Tyrode's solution. In this state, the myocardial action potential duration (APD75) was measured before and after the administration of each test compound. […]
In this section, each of the molecules is paired with its reported activation at 1 µM.
Entry rule: numbers only, all in %.

Observe how each entry below is paired with its result.
[[record]]
molecule = "CCN(CCCOc1ccc(NS(C)(=O)=O)cc1)CCCc1cc(=O)n(C)c(=O)n1C [Example 122]"
recorded_endpoint = "activation at 1 µM"
uom = "%"
measured_number = 10

[[record]]
molecule = "CCCN(CCCc1cc(=O)n(C)c(=O)n1C)CCOc1ccc(C(C)=O)cc1 [Example 47]"
recorded_endpoint = "activation at 1 µM"
uom = "%"
measured_number = 13

[[record]]
molecule = "CCN(CCCc1ccc(NS(C)(=O)=O)cc1)CCCc1cc(=O)n(C)c(=O)n1C [Example 138]"
recorded_endpoint = "activation at 1 µM"
uom = "%"
measured_number = 6


Name the recorded activation at 1 µM of the item CCN(CCCc1cc(=O)n(C)c(=O)n1C)CCOc1ccc([N+](=O)[O-])cc1 [Example 28] in your answer.
14
